Molecular target: T1, PTPN13_1, Q12923
T1 sequence (Q12923 1088-1188, limits assumed, looked up): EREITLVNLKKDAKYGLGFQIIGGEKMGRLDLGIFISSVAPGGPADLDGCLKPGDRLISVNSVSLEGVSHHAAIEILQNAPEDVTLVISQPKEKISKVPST
Assay: holdup assay
Parameters: key: below the threshold = too weak to quantify, mostly under pKd 3.1 to 4
Details: plain residues with an end cap or a label only (N-terminal biotin on a linker: ado-ado)
test-readout: pKd

Worked examples follow.
DDEDRLVIEI [ZNF831, Q5JPB2]; below the threshold
SAKVRTVTSV [RASL11B, Q9BPW5]; below the threshold
RKPKPSSSCC [RAB9A, P51151]; below the threshold
TSSMRGMDAV [RSRC2, Q7L4I2]; below the threshold
DDENIRTSDV [PLEKHA2, Q9HB19]; below the threshold
LPAHHNATRL [SLC34A1, Q06495;Q06495-1]; below the threshold

For each of the items listed, what is its pKd?
1. VNKSKLLTDV [KCNA1, Q09470]
2. PPYRHRNTVV [ERBB4, Q15303]

Given back:
["below the threshold", "below the threshold"]
